meta.source: the RNAGym collection of RNA variant scans (doi:10.7554/elife.80360)

B1: Hairpin Ribozyme (parent)
chain: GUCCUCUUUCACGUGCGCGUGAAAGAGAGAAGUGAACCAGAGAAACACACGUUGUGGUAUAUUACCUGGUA

Variants of: B1
method-summary: self-cleavage, relative activity (ratio to wild type); higher = more cleavage; co-transcriptional
self-cleavage overview
property-measured: self-cleavage

> print(dat)
          var  observed.value
 1  U60G G68U           0.296
 2  C46G A49G           0.137
 3  G54A U63C           0.216
 4   C6A A41U           0.919
 5   C4U G56C           0.214
 6    G1A U5A           0.152
 7  G19C A61G           0.144
 8  G34A U58C            1.11
 9  U53A U60A            1.08
10   C4U G13U           0.314
11  C10U C46G          0.0871
12   U9G G57U           0.379
13  G21A U33C           0.116
14  G13A U14G           0.538
15  G17A A28C            0.74
16  G25A U52G            0.61
17  U14A U70A           0.863
18  G32U A43U           0.148
19  A11C G34A            1.01
20  C50U G68U            0.16
21  U20C A61G          0.0608
22  C12G A64C           0.334
